assay: label from the status in PepcDB records
measured_quantity: protein production

Example sequences with recorded protein production:
>>> result("MAAGFFQAEMSILSSTLARSYSLPIRKTLMTFDFRIAMQRNPCLRIRRSCVAAFSSTPSHSRNFPIRGLEDVFVGYLFGRKKATEVAHVVWEQVIQKGDTVIDATCGNGNDTLAMLKMVMHDSVGCGGYVYAMDIQKDAIESTSSLLDQAVGSKEKECVKLFNLCHSKMGEIVPENARVRMVAFNLGYLPGGNKSIITLSDTTLSALKAAERILKPGGLISLVVYIGHPGGREELEVVEAFGSGLPVSDWICCKFQMLNRPLAPVLVFMFKREN")
"failed"
>>> result("MMYSKFISFLKQIPLPICGLILGLISLGNLLYSKGYPILGNSYDMLGLFLMFLILLKIVLAMKHTISTLNDPIVASVSPTFTMSLMVLSVFLKRLSGFSLLANVTWWTALILHLILMMYFIYLHVLPKELKIHDVYPSWFITFVGIGVISATSPDFGLEVGKVVVWITLLFYFILLPIVMHRVFILRKMHKSLLPLITIITAPGSLGLVGYLTVVEAKSKIFVIFLFILSQAIYFITLGLLTKLLRSAFYPSYAAFTFPLVISATAVNLTSKLSVFQFLNLELLANMEILIAIAIVTYVLIRYCIFLGSKLVQIMSEKYSPESI")
"failed"
>>> result("KHSSTQQRLSRMLHEDGFVMHYQLLQSVVEKDVISFEALLRYQDREGNLCPPTFISDFQLLNMMPTLDKLVIDKVLTDMQKMDLNEDRRVAINISVASIEEHGFAEHVIDRLKFFSIPPHWLEIEITEEAILSDNHNLLSTLEILKSHGIKIAMDDFGTGYASFPHLLKYPFDKIKLDRSLLLDASTTKGKQLYQLIAQMGDVANCEVVAEGVETEDEFKFVAECGVDKVQGFLIARP")
"failed"
>>> result("MMLGPEGGEGYVVKLRGLPWSCSIEDVQNFLSDCTIHDGVAGVHFIYTREGRQSGEAFVELESEDDVKLALKKDRESMGHRYIEVFKSHRTEMDWVLKHSGPNSA")
"not failed"
>>> result("MTEFKVVHTICPYCGTGCGIDLVVKDGKVVDSHPFKRHPVNEGKVCIKGNYCYEFVHSEDRLTKPLIKKNGEFIEATWDEALDLIAGKLKQYSPEEVAFFSCARGTNEESYALQKFARTVMKTNNVDHCARI")
"failed"

Shift focus to the following entry.
Query protein production for MEYGFWLPIFGGWLRNVNDESMPPTFEYAKQTAQAAEQLGFSTTLIAELNLNDIKGVSAPSLEAWTTAAALAAVTDRLEIMTAVRPGFHNPAVTAKMAANIDQLSNGRFTLNVVSAWWEEEAKQYGGVFTAHDERYDRTEEFVTILKGLWKEEEFSYKGNFYELHHTHLSPKPVQKQGIKLYAGGESKRGKEVIVNHADAYVMHGGTVEEVSVKIEDMKNRRKKVTEEPLQSFGLAAYVICRHTEEEALEEWRRITDVKDDALGYAGYQDFVSKSQLEQQVKLNDYSVSNRGLRPNLIGTPEQIAERILAFEKVGVTLLLLQFSPQLEEMKRFSEKVMPLVEAKRKELIT
not failed
